Assay: activity coefficient (dimensionless); of the first substance listed, at infinite dilution; xn = mol fraction of the nth substance listed
Settings: 323.15 K; Liquid; Chromatography; x1 = 0
Decide using activity coefficient: a value greater than or equal to 3 is true (1), a smaller one is false (0).

molecule="CCc1ccccc1 [ethylbenzene] + CCCCCCCCn1cc[n+](COCCCOC[n+]2ccn(CCCCCCCC)c2C)c1C.N#C[N-]C#N.N#C[N-]C#N" class_assignment="false (0)"
molecule="ClC(Cl)(Cl)Cl [tetrachloromethane] + CCCCCCCCn1cc[n+](COCCCOC[n+]2ccn(CCCCCCCC)c2C)c1C.O=S(=O)([N-]S(=O)(=O)C(F)(F)F)C(F)(F)F.O=S(=O)([N-]S(=O)(=O)C(F)(F)F)C(F)(F)F" class_assignment="false (0)"
molecule="CO [methanol] + Cn1cc[n+](COCCCOC[n+]2ccn(C)c2)c1.N#C[N-]C#N.N#C[N-]C#N" class_assignment="false (0)"
molecule="CCc1ccccc1 [ethylbenzene] + CCCOC[n+]1ccn(C)c1.F[B-](F)(F)F" class_assignment="true (1)"
molecule="CCC(=O)CC [pentan-3-one] + CCCOC[n+]1ccc(N(C)C)cc1.O=S(=O)([N-]S(=O)(=O)C(F)(F)F)C(F)(F)F" class_assignment="false (0)"
molecule="CCCCCCCCCCCC [dodecane] + CCCOC[n+]1ccn(C)c1.F[B-](F)(F)F" class_assignment="true (1)"
molecule="CCCCCCCCC [nonane] + CCCOC[n+]1ccn(Cc2ccccc2)c1.O=S(=O)([N-]S(=O)(=O)C(F)(F)F)C(F)(F)F" class_assignment="true (1)"
molecule="Cc1cccc(C)c1 [1,3-dimethylbenzene] + Cn1cc[n+](COCCCOC[n+]2ccn(C)c2)c1.N#C[N-]C#N.N#C[N-]C#N" class_assignment="true (1)"
molecule="CC1CCCCC1 [methylcyclohexane] + CCCCCCCCn1cc[n+](COCCCOC[n+]2ccn(CCCCCCCC)c2C)c1C.N#C[N-]C#N.N#C[N-]C#N" class_assignment="true (1)"
molecule="CC1CCCC1 [methylcyclopentane] + CCCCCCCCn1cc[n+](COCCC)c1C.O=S(=O)([N-]S(=O)(=O)C(F)(F)F)C(F)(F)F" class_assignment="false (0)"
molecule="CC#N [acetonitrile] + CCCOC[n+]1ccn(C)c1.N#C[N-]C#N" class_assignment="false (0)"
molecule="CCCCCCCCCC [decane] + CCCOC[n+]1ccn(C)c1.O=S(=O)([N-]S(=O)(=O)C(F)(F)F)C(F)(F)F" class_assignment="true (1)"
molecule="ClC(Cl)Cl [trichloromethane] + Cn1cc[n+](COCCCOC[n+]2ccn(C)c2)c1.N#C[N-]C#N.N#C[N-]C#N" class_assignment="false (0)"

----------
Assay: activity coefficient (dimensionless); of the first substance listed, at infinite dilution; xn = mol fraction of the nth substance listed
Conditions: 343.15 K; Liquid; Chromatography; x1 = 0
Classify: Fulfilled when activity coefficient is strictly less than 2; Not fulfilled when activity coefficient is not.

compound="ClC(Cl)(Cl)Cl [tetrachloromethane] + CCCCCCCCn1cc[n+](COCCC)c1C.O=S(=O)([N-]S(=O)(=O)C(F)(F)F)C(F)(F)F" class_assignment=Fulfilled
compound="C[N+](=O)[O-] [nitromethane] + N#C[N-]C#N.N#C[N-]C#N.c1ccc(Cn2cc[n+](COCCCOC[n+]3ccn(Cc4ccccc4)c3)c2)cc1" class_assignment=Fulfilled
compound="CCCCCCCCCC [decane] + CCCOC[n+]1ccn(Cc2ccccc2)c1.N#C[N-]C#N" class_assignment="Not fulfilled"
compound="c1ccncc1 [pyridine] + CCCOC[n+]1ccn(Cc2ccccc2)c1.O=S(=O)([N-]S(=O)(=O)C(F)(F)F)C(F)(F)F" class_assignment=Fulfilled
compound="ClC(Cl)(Cl)Cl [tetrachloromethane] + CCCCCCCCn1cc[n+](COCCCOC[n+]2ccn(CCCCCCCC)c2C)c1C.O=S(=O)([N-]S(=O)(=O)C(F)(F)F)C(F)(F)F.O=S(=O)([N-]S(=O)(=O)C(F)(F)F)C(F)(F)F" class_assignment=Fulfilled
compound="Cc1ccccc1 [toluene] + Cn1cc[n+](COCCCOC[n+]2ccn(C)c2)c1.O=S(=O)([N-]S(=O)(=O)C(F)(F)F)C(F)(F)F.O=S(=O)([N-]S(=O)(=O)C(F)(F)F)C(F)(F)F" class_assignment=Fulfilled
compound="CCc1ccccc1 [ethylbenzene] + CCCOC[n+]1ccn(C)c1.O=S(=O)([N-]S(=O)(=O)C(F)(F)F)C(F)(F)F" class_assignment="Not fulfilled"
compound="Cc1ccccc1C [1,2-dimethylbenzene] + CCCOC[n+]1ccn(C)c1.F[B-](F)(F)F" class_assignment="Not fulfilled"
